Source of measurements: patent US9096624B2

Overview of reported pIC50 across a group of molecules:
- Target: FAK (Homo sapiens)
- Sequence (Q05397 whole entry): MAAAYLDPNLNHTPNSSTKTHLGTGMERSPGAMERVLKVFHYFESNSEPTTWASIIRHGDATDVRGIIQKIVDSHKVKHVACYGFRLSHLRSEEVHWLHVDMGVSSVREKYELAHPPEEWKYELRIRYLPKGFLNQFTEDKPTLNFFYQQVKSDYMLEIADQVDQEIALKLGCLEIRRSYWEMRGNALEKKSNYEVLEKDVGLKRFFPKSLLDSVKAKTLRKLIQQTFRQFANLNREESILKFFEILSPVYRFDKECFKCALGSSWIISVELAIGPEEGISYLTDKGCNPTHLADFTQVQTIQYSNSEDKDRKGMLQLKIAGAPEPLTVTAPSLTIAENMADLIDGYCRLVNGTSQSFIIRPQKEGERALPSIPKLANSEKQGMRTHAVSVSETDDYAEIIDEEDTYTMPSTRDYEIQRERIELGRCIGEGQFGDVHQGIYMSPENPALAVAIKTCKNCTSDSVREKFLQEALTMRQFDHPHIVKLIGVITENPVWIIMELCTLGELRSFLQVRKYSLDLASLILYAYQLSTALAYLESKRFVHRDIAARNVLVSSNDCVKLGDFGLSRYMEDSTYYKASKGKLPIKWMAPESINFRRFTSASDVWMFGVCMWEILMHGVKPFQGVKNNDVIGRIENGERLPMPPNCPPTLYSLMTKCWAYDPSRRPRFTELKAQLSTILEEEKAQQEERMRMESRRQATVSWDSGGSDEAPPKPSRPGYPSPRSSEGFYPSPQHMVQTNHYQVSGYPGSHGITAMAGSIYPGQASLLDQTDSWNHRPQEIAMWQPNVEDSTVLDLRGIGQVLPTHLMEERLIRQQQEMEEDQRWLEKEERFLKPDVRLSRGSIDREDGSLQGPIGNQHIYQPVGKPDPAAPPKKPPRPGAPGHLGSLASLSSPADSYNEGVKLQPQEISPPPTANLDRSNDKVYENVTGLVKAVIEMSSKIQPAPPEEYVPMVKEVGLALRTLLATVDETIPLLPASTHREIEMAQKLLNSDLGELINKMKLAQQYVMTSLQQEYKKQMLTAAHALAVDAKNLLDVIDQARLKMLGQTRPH
- Run Description: Cell-based capture ELISA for inhibition of FAK autophosphorylation [pY397] in MiaPaCa2 cells
- Measurement Setup: MIA-PaCa2 cells, + 50% mouse plasma (Table 2); read-out: Mean FAK Cell Mechanistic IC50 + 50% mP MIA-PaCa2
pIC50: −log10 of the molar value.
Measured Property: pIC50

INSERT INTO assay_data (molecule, target, recorded_measurement) VALUES
  ('CCC(C)OP(=O)(Cc1ccc(Nc2ncc(C(F)(F)F)c(NCc3cccnc3N(C)S(C)(=O)=O)n2)cc1)OC(C)CC (stereo not drawn)', 'FAK (Homo sapiens)', '5.00 to 6.00'),
  ('CCOP(C)(=O)Cc1ccc(Nc2ncc(C(F)(F)F)c(Nc3ccc(-c4ccccc4)c4c3C(=O)N(C)C4)n2)cc1 (stereo not drawn)', 'FAK (Homo sapiens)', '> 6.00'),
  ('CCP(=O)(CC)Cc1ccc(Nc2ncc(C(F)(F)F)c(NCc3cccnc3N(C)S(C)(=O)=O)n2)cc1', 'FAK (Homo sapiens)', '> 6.00'),
  ('CCOP(=O)(Cc1ccc(Nc2ncc(C(F)(F)F)c(Nc3ccc(N4CCCC(O)C4)c4c3C(=O)N(C)C4)n2)c(OC)c1)OCC (stereo not drawn)', 'FAK (Homo sapiens)', '> 6.00'),
  ('CN(c1ncccc1CNc1nc(Nc2cccc(CP(C)(C)=O)c2)ncc1C(F)(F)F)S(C)(=O)=O', 'FAK (Homo sapiens)', '> 6.00'),
  ('CN(c1ncccc1CNc1nc(Nc2ccc(CP(=O)(O)O)cc2)ncc1C(F)(F)F)S(C)(=O)=O', 'FAK (Homo sapiens)', '5.00 to 6.00'),
  ('CN(c1ncccc1CNc1nc(Nc2cccc(P(C)(C)=O)c2)ncc1C(F)(F)F)S(C)(=O)=O', 'FAK (Homo sapiens)', '> 6.00'),
  ('CN(c1ncccc1CNc1nc(Nc2ccc(P(C)(C)=O)cc2)ncc1C(F)(F)F)S(C)(=O)=O', 'FAK (Homo sapiens)', '> 6.00'),
  ('CCCOP(=O)(OCCC)c1ccc(Nc2ncc(C(F)(F)F)c(NCc3cccnc3N(C)S(C)(=O)=O)n2)cc1', 'FAK (Homo sapiens)', '5.00 to 6.00'),
  ('CC(C)P(=O)(Cc1cccc(Nc2ncc(C(F)(F)F)c(NCc3cccnc3N(C)S(C)(=O)=O)n2)c1)C(C)C', 'FAK (Homo sapiens)', '> 6.00'),
  ('CC(C)OP(=O)(OC(C)C)c1cccc(Nc2ncc(C(F)(F)F)c(NCc3cccnc3N(C)S(C)(=O)=O)n2)c1', 'FAK (Homo sapiens)', '5.00 to 6.00'),
  ('CN(c1ncccc1CNc1nc(Nc2ccc(P3(=O)OCC(C)(C)CO3)cc2)ncc1C(F)(F)F)S(C)(=O)=O', 'FAK (Homo sapiens)', '> 6.00'),
  ('CCOP(=O)(Cc1ccc(Nc2ncc(C(F)(F)F)c(Nc3ccc(C4=CCN(C(N)=O)CC4)c4c3C(=O)N(C)C4)n2)c(OC)c1)OCC', 'FAK (Homo sapiens)', '> 6.00'),
  ('CCOC(=O)[C@H]1CC[C@H](c2ccc(Nc3nc(Nc4ccc(CP(=O)(OCC)OCC)cc4OC)ncc3C(F)(F)F)c3c2CN(C)C3=O)CC1', 'FAK (Homo sapiens)', '> 6.00'),
  ('COP(=O)(OC)c1ccc(Nc2ncc(C(F)(F)F)c(NCc3cccnc3N(C)S(C)(=O)=O)n2)cc1', 'FAK (Homo sapiens)', '> 6.00'),
  ('CCOP(=O)(Cc1ccc(Nc2ncc(C(F)(F)F)c(NCc3cccc(S(C)(=O)=O)c3)n2)cc1)OCC', 'FAK (Homo sapiens)', '5.00 to 6.00'),
  ('CCOP(=O)(Cc1ccc(Nc2ncc(C(F)(F)F)c(Nc3ccc([C@H]4CC[C@H](O)CC4)c4c3C(=O)N(C)C4)n2)cc1)OCC (stereo in doubt)', 'FAK (Homo sapiens)', '> 6.00'),
  ('CCOP(=O)(Cc1ccc(Nc2ncc(Cl)c(Nc3ccccc3C(=O)NC)n2)cc1)OCC', 'FAK (Homo sapiens)', '5.00 to 6.00'),
  ('CN(c1ncccc1CNc1nc(Nc2ccc(CP(=O)(OCCc3ccsc3)OCCc3ccsc3)cc2)ncc1C(F)(F)F)S(C)(=O)=O', 'FAK (Homo sapiens)', '< 5.00'),
  ('CN(c1ncccc1CNc1nc(Nc2cccc(P3(=O)OCC(C)(C)CO3)c2)ncc1C(F)(F)F)S(C)(=O)=O', 'FAK (Homo sapiens)', '5.00 to 6.00'),
  ('CNC(=O)c1ccccc1Nc1nc(Nc2ccc(P(C)(C)=O)cc2)ncc1C(F)(F)F', 'FAK (Homo sapiens)', '> 6.00'),
  ('CN(c1ncccc1CNc1nc(Nc2cccc(CP(=O)(O)O)c2)ncc1C(F)(F)F)S(C)(=O)=O', 'FAK (Homo sapiens)', '5.00 to 6.00'),
  ('CN(c1ncccc1CNc1nc(Nc2cccc(CP(=O)(OCC(C)(C)C)OCC(C)(C)C)c2)ncc1C(F)(F)F)S(C)(=O)=O', 'FAK (Homo sapiens)', '< 5.00'),
  ('CCOP(=O)(Cc1ccc(Nc2ncc(C(F)(F)F)c(Nc3ccc([C@H]4CC[C@@H](O)CC4)c4c3C(=O)N(C)C4)n2)c(OC)c1)OCC', 'FAK (Homo sapiens)', '> 6.00'),
  ('CCCCOP(=O)(Cc1ccc(Nc2ncc(C(F)(F)F)c(NCc3cccnc3N(C)S(C)(=O)=O)n2)cc1)OCCCC', 'FAK (Homo sapiens)', '5.00 to 6.00'),
  ('CN(c1ncccc1CNc1nc(Nc2ccc(CP(=O)(OCC3CCC3)OCC3CCC3)cc2)ncc1C(F)(F)F)S(C)(=O)=O', 'FAK (Homo sapiens)', '5.00 to 6.00'),
  ('CCOP(=O)(Cc1ccc(Nc2ncc(C(F)(F)F)c(Nc3ccc(N4CCC(O)CC4)c4c3C(=O)N(C)C4)n2)c(OC)c1)OCC', 'FAK (Homo sapiens)', '> 6.00');
